# Tgt: NADPH oxidase 2 (Homo sapiens) (UniProt P04839)
# Sequence (P04839 whole entry, looked up): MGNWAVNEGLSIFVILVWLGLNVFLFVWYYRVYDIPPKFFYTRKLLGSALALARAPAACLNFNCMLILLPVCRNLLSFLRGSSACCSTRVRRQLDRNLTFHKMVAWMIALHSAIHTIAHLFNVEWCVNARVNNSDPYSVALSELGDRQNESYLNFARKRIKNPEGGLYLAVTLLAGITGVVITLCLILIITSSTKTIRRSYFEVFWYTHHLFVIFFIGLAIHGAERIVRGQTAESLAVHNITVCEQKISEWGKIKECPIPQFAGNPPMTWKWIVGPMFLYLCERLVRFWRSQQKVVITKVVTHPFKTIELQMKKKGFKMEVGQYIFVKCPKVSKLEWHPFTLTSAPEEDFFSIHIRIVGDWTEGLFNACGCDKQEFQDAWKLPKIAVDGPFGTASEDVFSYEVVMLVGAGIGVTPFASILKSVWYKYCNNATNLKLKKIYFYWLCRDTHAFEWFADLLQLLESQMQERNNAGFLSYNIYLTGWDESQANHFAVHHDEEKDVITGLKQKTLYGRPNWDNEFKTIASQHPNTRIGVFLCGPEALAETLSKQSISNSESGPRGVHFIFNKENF
# Assay: NOX2-dependent H2O2 signal modulators, primary screen, NOX inhibitor project, cell-based, HEK293-NOX2, PMA-stimulated, Amplex Red fluorescence (AID 1159); note: test concentration not given here
# Test Conditions: 45 min, higher = more signal, called active from +8 up or from −8 down
Please mark criterion met if the recorded z-score is equal to or greater than -0.7, and criterion not met if it falls below.

Solved entries:
[
  {
    "Compound": "C=CCC(OC(C)=O)[C@@H]1[C@@H](N(Cc2cccc3ccccc23)C(=O)c2cccc3ccccc23)c2cc(OCCCO)ccc2N1C(=O)c1ccc(-c2ccccc2)cc1 (stereo partly specified)",
    "Tgt": "NADPH oxidase 2 (Homo sapiens) (UniProt P04839)",
    "Class Name": "criterion met"
  },
  {
    "Compound": "COCCOC(=O)N1C(=O)[C@@]2(c3cc(C#CC4=CCCCC4)ccc31)[C@H](c1ccc(OCCO)cc1)N1[C@H](c3ccccc3)[C@H](c3ccccc3)OC(=O)[C@H]1[C@@H]2C(=O)NC[C@H](O)c1ccccc1",
    "Tgt": "NADPH oxidase 2 (Homo sapiens) (UniProt P04839)",
    "Class Name": "criterion met"
  }
]

# evaluate next
Decide: z-score of COC(=O)[C@@]1(Cc2ccc(OC)cc2)[C@H]2c3cc(C(=O)N4CCCC4)n(Cc4cccc5ccccc45)c3C[C@H]2CN1C(=O)c1ccccc1 >= -0.7?
criterion met

====

# Assay: binders of probe aFGF2 on microarray, primary screen, stem cell growth factor project, biochemical, small-molecule microarray, fluorescence 635/667 (AID 1067);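 note: measures binding of biotinylated aFGF2 protein to printed compounds on slides; z-score merges feature fluorescence and signal-to-noise across triplicate slides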
# Test Conditions: higher = more signal
Quantity Name: composite z-score
Returns: the value as a bare number; no unit string appended.

Recorded results for 2 molecules are shown here.
[
  {
    "Molecule": "O=C1C2C=CC(C(O)c3ccc(Br)cc3)N(Nc3ccccc3F)C2C(=O)N1c1ccccc1 (stereo not drawn)",
    "composite z-score": 0.0181
  },
  {
    "Molecule": "COCCOC(=O)N1C(=O)[C@@]2(c3cc(C#CCC(C(=O)OC)C(=O)OC)ccc31)[C@H](C(=O)N1CCc3cc(OC)c(OC)cc3C1)[C@H]1C(=O)O[C@H](c3ccccc3)[C@H](c3ccccc3)N1[C@@H]2c1ccc(OCCO)cc1",
    "composite z-score": -0.0099
  }
]

Bench note: what composite z-score did CC(C)N1C(=O)C[C@@](C(=O)NCCCN(C)C)(c2ccc([N+](=O)[O-])cc2)[C@H]1c1ccc(CO)cc1 show?
-0.0328

====

# Assay: small-molecule microarray binders of probe aWnt5a, primary screen, biochemical, biotinylated probe, 635/667 nm fluorescence (AID 1113);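 note: score merges 667 nm fluorescence intensity with signal-to-noise per printed feature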
# Test Conditions: higher = more signal
Please mark true (1) if the recorded composite z-score is equal to or greater than 0.04, and false (0) if it falls below.

[
  {
    "Molecule": "Cc1cc(C)c(C(O)C2C=CC3C(=O)NC(=O)C3N2Nc2ccc(Cl)cc2Cl)c(C)c1 (centres undefined)",
    "Class Name": "true (1)"
  },
  {
    "Molecule": "C=C(/C(=C/C[C@@H](OC(C)=O)c1cccc(OCCO)c1)c1cc(C(=O)OC)ccc1OC)C(C)C",
    "Class Name": "false (0)"
  },
  {
    "Molecule": "CO[C@]12C=C(Br)[C@@H](C[C@@H]1c1cccc(C)c1)[C@@]1(CO1)C2=O",
    "Class Name": "false (0)"
  },
  {
    "Molecule": "CCOC(=O)c1ccc(NC(=O)O[C@H]2[C@H](OC(=O)Nc3ccc4c(c3)OCO4)[C@@H](OC(=O)Nc3ccc4c(c3)OCO4)[C@@H](OC)O[C@@H]2CO)cc1",
    "Class Name": "false (0)"
  },
  {
    "Molecule": "O[C@@H](Cc1ccccc1)[C@@H](/C=C/C1CC1)N(CC#Cc1ccccc1)Cc1cccc(Cl)c1",
    "Class Name": "false (0)"
  }
]

Decide: composite z-score of O=C1NC(=O)C2C1C=CC(C(O)c1ccco1)N2Nc1ccccn1 (centres undefined) >= 0.04?
false (0)

What do we get for CCCCCCc1nc(C2CC2)cc2c1[Si](C(C)C)(C(C)C)OC2 ?
false (0)

What do we get for [N-]=[N+]=NCc1ccccc1[C@H]1OC(c2ccc(OCCCO)cc2)=N[C@@]1(CCS(=O)(=O)c1ccccc1)C(=O)N1CCCCC1 ?
true (1)

Values were extracted from PubChem BioAssay.
